- Tested on: MDA-MB-435
- Procedure details: NCI tumour cell line growth inhibition, 48 h
Quantity kind: TGI

Use these answered entries as a reference point.
Request: Return reported TGI; argument: O=CN1N=C(c2ccc(Cl)cc2)CC1c1cccc(Nc2ccnc3cc(Cl)ccc23)c1 (configuration not stated)
Response: 17.2 µM

Request: Return reported TGI; argument: Cc1ccc(SCC(CF)OCn2cc(F)c(=O)[nH]c2=O)cc1 (configuration not stated)
Response: > 100 µM

Request: Return reported TGI; argument: CCOC(=O)C(NC(=O)CC(C)C)(Nc1ccc(S(=O)(=O)Nc2nc(C)cc(C)n2)cc1)C(F)(F)F (configuration not stated)
Response: > 100 µM

Request: Return reported TGI; argument: CCOC(=O)C1C(c2ccc(OC)cc2)c2c([nH][nH]c2=O)CC1(O)OCC (configuration not stated)
Response: > 100 µM

Request: Return reported TGI; argument: COc1ccc2c(CN3CCC[C@H]3C(=O)O)cc3cc4c(cc3c2c1)OCO4
Response: 30.4 µM

***
Request: Return reported TGI; argument: O=C(O)c1ccc(Nc2nc3ccccc3nc2-c2cccs2)cc1
Response: > 100 µM

Request: Return reported TGI; argument: N#Cc1sc2c(c1OC(=O)c1cccs1)c(=O)n(-c1ccccc1)c(=S)n2-c1ccccc1
Response: > 100 µM

Request: Return reported TGI; argument: Cc1cc(N2CCN(c3ccnc4cc(Cl)ccc34)CC2)nc(NC2CCCCC2)n1
Response: 2.96 µM
